Every entry's value here was drawn from patent EP0170121A1.

Recorded Mean Energy Expenditure (0-3h) by entry
System: Male Sprague-Dawley rats
Experiment: Effect on energy expenditure of rats (oxygen consumption, oral dosing)
Format: in vivo
Details: deprived of food, p.o. in water, 0-3h after dosing, percentage of the rate of energy expenditure of the rats dosed with water, dose differs per compound (Dose mg/kg p.o.)
Counter-ions that a name gives are not always drawn.
Response body: numeric value in percentage, unit text excluded.

Request: Which value of Mean Energy Expenditure (0-3h) has been reported for CCOC(=O)COc1ccc(C[C@@H](C)N(CC(O)c2cc3ccccc3o2)C[C@H](O)COc2ccccc2)cc1.Cl (stereo partly shown) in the records?
Result: 142

Request: Same question, CCOC(=O)COc1ccc(C[C@@H](C)N(C[C@H](O)COc2ccccc2)C[C@H](O)c2cccc(Cl)c2)cc1 this time
Result: 126

Request: Query CC(Cc1ccc(OCC(N)=O)cc1)N(CC(O)COc1ccccc1)CC(O)c1cc(Cl)c(N)c(Cl)c1 (stereo not shown) next
Result: 129

Request: Same read-out for CNC(=O)c1ccc(C[C@@H](C)N(C[C@H](O)COc2ccccc2)C[C@H](O)c2ccccc2)cc1 ?
Result: 112

Request: Also, COC(=O)c1ccc(C[C@@H](C)N(C[C@H](O)COc2ccccc2)C[C@H](O)COc2ccccc2)cc1 please.
Result: 115

Others:
Request: Requested read-out: Mean Energy Expenditure (0-3h). Entry: COC(=O)COc1ccc(CC(C)N(CC(O)COc2ccc(CC(N)=O)cc2)CC(O)c2cccc(Cl)c2)cc1 (stereo not shown) [Example 11, hydrochloride]
Result: 136

Request: Same question for CCOC(=O)COc1ccc(C[C@@H](C)N(C[C@H](O)COc2ccccc2)C[C@H](O)c2ccccc2)cc1 [Example 15, hydrochloride] please.
Result: 135

====

Tested on: Male Sprague-Dawley rats
Experiment: Effect on energy expenditure of rats (oxygen consumption, oral dosing)
Assay type: in vivo
Settings: deprived of food, p.o. in water, 0-3h after dosing, percentage of the rate of energy expenditure of the rats dosed with water, dose differs per compound (Dose mg/kg p.o.)
Structures can show the parent of a compound that is named as a salt.
# maps each entry to its Mean Energy Expenditure (0-3h)
Write it as a number; the unit percentage goes unstated.

A selection of reference data follows.
Request: # Mean Energy Expenditure (0-3h) lookup, item C[C@H](Cc1ccc(OCC(N)=O)cc1)N(C[C@H](O)COc1ccccc1)C[C@H](O)c1ccccc1 [Example 16, hydrochloride, hemihydrate]
Result: 141

Request: Moving on to the next compound: C[C@H](Cc1ccc(OCC(N)=O)cc1)N(C[C@H](O)COc1ccccc1)C[C@H](O)c1cccc(Cl)c1 [Example 19, hydrochloride, hemihydrate]
Result: 120

Request: Repeat for the following compound: CCOC(=O)COc1ccc(C[C@@H](C)N(CC(O)c2cc3ccccc3o2)C[C@H](O)c2ccccc2)cc1 (stereo partly drawn) [Example 27, hydrochloride]
Result: 134

Request: Moving on to the next compound: COC(=O)COc1ccc(C[C@@H](C)N(C[C@H](O)COc2ccccc2)C[C@H](O)c2ccccc2)cc1 [Example 24, hydrochloride, hemihydrate]
Result: 146

Request: Try this compound next: C[C@H](Cc1ccc(OCC(N)=O)cc1)N(C[C@@H](O)COc1ccccc1)C[C@H](O)c1ccc(O)cc1
Result: 131

***
Request: // returns reported Mean Energy Expenditure (0-3h) for input CCOC(=O)COc1ccc(C[C@@H](C)N(C[C@@H](O)COc2ccccc2)C[C@H](O)c2ccccc2)cc1 [Example 23, hydrochloride]
Result: 129

Request: // next record C[C@H](Cc1ccc(OCCN)cc1)N(C[C@H](O)COc1ccccc1)C[C@H](O)c1ccccc1 [Example 20, dihydrochloride, hydrate]
Result: 112

Request: CCOC(=O)COc1ccc(CC[C@@H](C)N(C[C@H](O)COc2ccccc2)C[C@H](O)c2ccccc2)cc1 [Example 21, hydrochloride]
Result: 110

Request: Try the compound Br.C[C@H](CCc1ccc(C(N)=O)cc1)N(C[C@H](O)COc1ccccc1)C[C@H](O)COc1ccccc1.O.O
Result: 108

Request: Repeat for the following compound: CCOC(=O)COc1ccc(C[C@@H](C)N(C[C@H](O)COc2ccccc2)C[C@H](O)COc2ccccc2)cc1 [Example 17, hydrochloride, hemihydrate]
Result: 120

Request: What do we get for C[C@H](CCc1ccc(C(N)=O)cc1)N(C[C@H](O)COc1ccccc1)C[C@H](O)c1ccccc1 ?
Result: 139

Request: Next up: CNC(=O)c1ccc(C[C@@H](C)N(C[C@H](O)COc2ccccc2)C[C@H](O)COc2ccccc2)cc1
Result: 114

Request: Again, but for COC(=O)c1ccc(C[C@@H](C)N(C[C@@H](O)COc2ccccc2)C[C@@H](O)COc2ccccc2)cc1
Result: 114

Request: Also, COC(=O)c1ccc(C[C@@H](C)N(C[C@H](O)COc2ccccc2)C[C@H](O)c2ccccc2)cc1 [Example 4, hydrochloride, monohydrate] please.
Result: 110

Request: Moving on to the next compound: COC(=O)COc1ccc(CC(C)N(CC(O)COc2ccccc2)CC(O)c2cc(Cl)c(N)c(Cl)c2)cc1 (stereo not drawn)
Result: 131
